procedure text: inhibitors of TNFa-induced NFkB p65 translocation, primary screen, imaging, HUVEC, MLSMR starter and 10KST1 sets (AID 438);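 note: compound added about 3h40 before a 20 min TNFalpha stimulation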
particulars: HUVEC TNFa-induced p65 nuclear translocation; measured here: nuclei count (cytotoxicity indicator), at 2.08 µM
Classify by measured cell count: Satisfied if it is equal to or exceeds 600, Not satisfied if it is smaller.

- CCCCNC(=O)c1nc2ncc(Br)cn2n1: Satisfied
- COc1c(C(=O)Nc2c(C)n(C)n(-c3ccccc3)c2=O)ccc2ccccc12: Not satisfied
- Cc1cc(C)n(S(=O)(=O)c2cc(C(=O)O)c(Cl)cc2Cl)n1: Not satisfied
- Cc1occc1-c1nnc(SCC(=O)c2ccc(F)cc2)n1Cc1ccco1: Not satisfied
- Cc1nc(NCc2ccc3c(c2)OCO3)c2oc3ccccc3c2n1: Not satisfied

**Query** Would you say "COC(=O)c1cc(OC)c(OCc2cc(C(=O)OC)oc2C)c(OC)c1" shows cell count at minimum 600?
**Result** Satisfied

**Query** Would you say CC(C)(C)C1CCc2[nH]nc(C(=O)O)c2C1 (stereo unspecified) shows cell count at minimum 600?
**Result** Satisfied

**Query** Would you say "O=C(CCN1C(=O)c2ccccc2C1=O)N1CCN(C(=O)c2ccccc2)CC1" shows cell count at minimum 600?
**Result** Not satisfied

**Query** Would you say "CCOC(=O)Cc1csc(/C(=N/O)C(N)=O)n1" shows cell count at minimum 600?
**Result** Satisfied

**Query** Would you say CCOC(=O)C(NCc1ccccc1OC)(NC(C)=O)C(F)(F)F (stereo unspecified) shows cell count at minimum 600?
**Result** Not satisfied
